measurement.target: C-C chemokine receptor type 4 (Homo sapiens) (UniProt P51679)
Sequence (P51679 whole entry, looked up): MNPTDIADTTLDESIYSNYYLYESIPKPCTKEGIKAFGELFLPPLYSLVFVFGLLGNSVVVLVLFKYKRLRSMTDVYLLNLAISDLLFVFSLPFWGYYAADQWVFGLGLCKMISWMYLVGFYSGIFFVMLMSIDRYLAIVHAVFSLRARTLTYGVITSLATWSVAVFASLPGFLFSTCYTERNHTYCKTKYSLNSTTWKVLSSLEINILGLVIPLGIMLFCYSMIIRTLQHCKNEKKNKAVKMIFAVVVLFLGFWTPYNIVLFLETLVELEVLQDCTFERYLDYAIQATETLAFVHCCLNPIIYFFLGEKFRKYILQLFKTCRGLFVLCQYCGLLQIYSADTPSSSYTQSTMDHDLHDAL
measured.quantity: pIC50
When answering, recall that pIC50 equals minus log10 of the concentration in mol/L, and write that number alone.

Asked: Which measured pIC50 value corresponds to Cc1ccc(C(Nc2c(Nc3cccc(C(=O)N(C)C)c3O)c(=O)c2=O)C2(C)CCCO2)o1 (stereo unspecified) ?
Given back: 6.40

====

Record form. Attribute: Ki. Fill in for each entry.
measurement.target: C-X-C chemokine receptor type 3 (Homo sapiens, UniProt P49682)
Sequence (P49682 whole entry): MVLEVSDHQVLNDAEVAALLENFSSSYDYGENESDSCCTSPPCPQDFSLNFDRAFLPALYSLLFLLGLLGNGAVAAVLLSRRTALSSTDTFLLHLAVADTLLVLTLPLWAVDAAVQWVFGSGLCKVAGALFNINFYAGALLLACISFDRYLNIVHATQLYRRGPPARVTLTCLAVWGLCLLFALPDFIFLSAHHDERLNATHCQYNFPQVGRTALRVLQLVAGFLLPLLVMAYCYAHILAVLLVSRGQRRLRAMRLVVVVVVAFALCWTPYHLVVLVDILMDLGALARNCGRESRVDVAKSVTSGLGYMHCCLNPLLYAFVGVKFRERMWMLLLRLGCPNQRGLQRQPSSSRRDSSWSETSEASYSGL
assay.procedure: Displacement of [125I]-CXCL10 from CXCR3 in human PBMC cells
Type: cell-based
Record the value in nM, omitting the unit from your answer.

Asked: May I ask what Ki has been recorded for N=C(Nc1ccc(I)cc1)NC1C2CC3CC(C2)CC1C3 (centres undefined) ?
Given back: 158

Asked: Then this compound: `CCNC(=O)c1cnc(N2CCN(C3CCN(Cc4ccc(Cl)cc4F)CC3)[C@@H](CC)C2)c(Cl)c1`
Given back: 0.316

Asked: Okay, and `N#Cc1ccc(CN2CCC(N3CCN(c4ncc(C(=O)NCCOc5ccccc5)cc4Cl)CC3)CC2)cc1` ?
Given back: 100

Asked: Same question, `CC[C@H]1CN(c2nc(N)c(C(N)=O)nc2Cl)CCN1C1CCN(Cc2ccc(Cl)cc2)CC1` this time
Given back: 0.794
